Provenance of the data: patent US12139487B2

test system: BRM-dependent transcription (BRG1 mutant lung cancer cell line A549); test: BRM-dependent transcription, MMTV luciferase reporter in BRG1 mutant A549 cells; type: cell-based; conditions: MMTV luciferase reporter cell lines, selectivity BRG1/BRM, Table 11
Value kind: Ratio (MDA-MMTV IC50 (μM) divided by A549-MMTV IC50 (μM))

[[record]]
compound = "O=C(NCc1cc2nc(-c3ccc(C(F)F)c(N4CC(F)C4)n3)ccc2cn1)c1cc(F)c2c(c1)S(=O)(=O)[C@@H](F)CCO2 [Compound 441]"
target_or_system = "BRM-dependent transcription (BRG1 mutant lung cancer cell line A549)"
numeric_value = 21.14

[[record]]
compound = "COc1nc(OC(F)F)ccc1-c1ccc2cnc(CNC(=O)c3cc(F)c4c(c3)S(=O)(=O)[C@@H](F)CCO4)cc2n1 [Compound 388]"
target_or_system = "BRM-dependent transcription (BRG1 mutant lung cancer cell line A549)"
numeric_value = 26.43

[[record]]
compound = "O=C(NCc1cc2nc(-c3ccc(OCCO)c(C4CC4)n3)ccc2cn1)c1cc(Cl)c2c(c1)S(=O)(=O)[C@@H](F)COC2 [Compound 428]"
target_or_system = "BRM-dependent transcription (BRG1 mutant lung cancer cell line A549)"
numeric_value = 26.26


###

tested on: BRM-dependent transcription (BRG1 mutant lung cancer cell line A549); assay: BRM-dependent transcription, MMTV luciferase reporter in BRG1 mutant A549 cells; type: cell-based; conditions: MMTV luciferase reporter cell lines, selectivity BRG1/BRM, Table 11
Value kind: Ratio (MDA-MMTV IC50 (μM) divided by A549-MMTV IC50 (μM))

Recorded Ratio (MDA-MMTV IC50 (μM) divided by A549-MMTV IC50 (μM)), per entry:
[[record]]
compound = "CCOc1nc([C@H](F)CF)ccc1-c1ccc2cnc(CNC(=O)c3cc(F)c4c(c3)S(=O)(=O)[C@@H](F)CCO4)cc2n1"
numeric_value = 22.68

[[record]]
compound = "O=C(NCc1cc2nc(-c3ccnc(C4CC4(F)F)n3)ccc2cn1)c1cc(Cl)c2c(c1)S(=O)(=O)[C@@H](F)COC2 (stereo partly drawn)"
numeric_value = 24.69

[[record]]
compound = "COc1nc([C@H](F)CF)ccc1-c1ccc2cnc(CNC(=O)c3cc(Cl)c4c(c3)S(=O)(=O)[C@@H](F)COC4)cc2n1"
numeric_value = 33.44

[[record]]
compound = "O=C(NCc1cc2nc(-c3ccc(OC(F)F)c([C@@H]4CC4(F)F)n3)ccc2cn1)c1cc(C(F)F)c2c(c1)S(=O)(=O)[C@@H](F)COC2"
numeric_value = 25.86


I: CCOc1nc([C@@H](F)CF)ccc1-c1ccc2cnc(CNC(=O)c3cc(Br)c4c(c3)S(=O)(=O)[C@@H](F)COC4)cc2n1 [Compound 456]
II: COc1nc([C@@](C)(F)C(F)F)ccc1-c1ccc2cnc(CNC(=O)c3cc(F)c4c(c3)S(=O)(=O)[C@@H](F)CCO4)cc2n1
Input line: When I and II are compared, which has the higher number for Ratio (MDA-MMTV IC50 (μM) divided by A549-MMTV IC50 (μM))? Please identify the chosen entry by its label.
Output line: I
(I: 40.89, II: 23.98)

###

biological target: BRM (Homo sapiens); construct: made in house; host or cells: High Five insect cells; assay: ATPase catalytic activity assay (ADP-Glo), BRM; type: biochemical; conditions: ATPase assay, selectivity BRG1/BRM, Table 10
Sequence (P51531 whole entry): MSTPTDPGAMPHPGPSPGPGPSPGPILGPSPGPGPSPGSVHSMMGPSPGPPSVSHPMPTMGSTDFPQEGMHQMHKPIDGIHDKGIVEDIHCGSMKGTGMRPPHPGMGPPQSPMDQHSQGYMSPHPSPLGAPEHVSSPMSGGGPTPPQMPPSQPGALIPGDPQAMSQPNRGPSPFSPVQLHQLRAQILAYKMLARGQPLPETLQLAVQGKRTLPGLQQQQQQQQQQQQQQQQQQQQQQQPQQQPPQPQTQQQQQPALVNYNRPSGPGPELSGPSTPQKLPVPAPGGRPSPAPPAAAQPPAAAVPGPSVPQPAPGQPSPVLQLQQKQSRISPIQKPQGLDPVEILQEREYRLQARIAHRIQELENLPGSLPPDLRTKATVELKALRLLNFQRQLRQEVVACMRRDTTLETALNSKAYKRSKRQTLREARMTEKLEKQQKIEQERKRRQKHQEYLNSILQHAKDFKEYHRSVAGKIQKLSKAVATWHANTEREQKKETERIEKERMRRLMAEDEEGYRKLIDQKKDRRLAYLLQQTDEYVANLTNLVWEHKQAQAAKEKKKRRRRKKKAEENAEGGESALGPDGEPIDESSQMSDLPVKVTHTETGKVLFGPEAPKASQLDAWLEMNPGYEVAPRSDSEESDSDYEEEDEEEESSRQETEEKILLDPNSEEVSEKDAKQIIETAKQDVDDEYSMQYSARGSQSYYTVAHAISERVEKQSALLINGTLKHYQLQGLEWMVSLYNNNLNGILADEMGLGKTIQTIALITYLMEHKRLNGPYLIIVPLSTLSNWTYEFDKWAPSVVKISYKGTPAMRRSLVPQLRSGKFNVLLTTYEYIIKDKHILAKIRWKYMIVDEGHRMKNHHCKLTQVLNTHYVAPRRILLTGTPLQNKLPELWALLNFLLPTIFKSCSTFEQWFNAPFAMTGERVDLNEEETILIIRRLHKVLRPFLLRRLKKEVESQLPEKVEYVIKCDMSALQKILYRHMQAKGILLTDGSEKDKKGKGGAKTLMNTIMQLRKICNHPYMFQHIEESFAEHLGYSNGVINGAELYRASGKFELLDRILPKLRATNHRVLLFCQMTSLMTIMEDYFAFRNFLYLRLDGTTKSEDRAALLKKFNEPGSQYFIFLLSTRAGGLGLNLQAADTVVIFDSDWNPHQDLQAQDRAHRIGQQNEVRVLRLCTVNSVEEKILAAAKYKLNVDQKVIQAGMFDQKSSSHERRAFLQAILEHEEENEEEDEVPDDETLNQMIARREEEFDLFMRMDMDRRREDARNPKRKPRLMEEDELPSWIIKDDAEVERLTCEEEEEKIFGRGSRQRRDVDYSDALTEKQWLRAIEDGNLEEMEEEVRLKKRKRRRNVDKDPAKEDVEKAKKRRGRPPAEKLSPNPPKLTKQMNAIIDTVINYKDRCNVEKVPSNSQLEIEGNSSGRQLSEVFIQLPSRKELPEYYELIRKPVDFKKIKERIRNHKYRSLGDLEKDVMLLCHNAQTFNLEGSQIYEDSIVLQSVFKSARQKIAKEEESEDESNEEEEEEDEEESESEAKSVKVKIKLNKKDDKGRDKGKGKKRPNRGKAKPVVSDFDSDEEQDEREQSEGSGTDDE
Value kind: Ratio (BRG1 IC50 (μM) divided by BRM IC50 (μM))

Consider the worked cases shown below.
[[record]]
molecule = "C[C@@H]1CN(c2cccc(/C=C/c3ccnc(CNC(=O)c4cc(F)c5c(c4)S(=O)(=O)[C@@H](F)CCO5)c3)n2)C[C@H](C)O1 [Compound 52]"
numeric_value = 22.78

[[record]]
molecule = "C[C@@H]1CN(c2cccc(-c3ccc4cnc(CNC(=O)c5cc(Cl)c6c(c5)S(=O)(=O)[C@@H](F)CCO6)cc4n3)n2)C[C@H](C)O1 [Compound 148]"
numeric_value = 17.59

[[record]]
molecule = "O=C(NCc1cc2nc(N3CCOc4ccc([C@H](F)CF)nc43)ccc2cn1)c1cc(F)c2c(c1)S(=O)(=O)[C@@H](F)CCO2 [Compound 279]"
numeric_value = 18.19

[[record]]
molecule = "Cc1cc2c(-c3ccc4cnc(CNC(=O)c5cc(F)c6c(c5)S(=O)(=O)[C@@H](F)CCO6)cc4n3)ccc(F)c2n1C [Compound 68]"
numeric_value = 13.58


a: O=C(NCc1cc2nc(N3CCOc4cc(CC(F)F)cnc43)ccc2cn1)c1cc(F)c2c(c1)S(=O)(=O)[C@@H](F)CCO2 [Compound 145]
b: CO[C@@H]1CN(c2cccc(-c3ccc4cnc(CNC(=O)c5cc(F)c6c(c5)S(=O)(=O)[C@@H](F)CCO6)cc4n3)n2)C[C@H]1C [Compound 104]
Input line: Please state the entry with greater Ratio (BRG1 IC50 (μM) divided by BRM IC50 (μM)) among a and b . Please reply using the label of the selected record.
Output line: a
(a: 16.05, b: 10.21)

I: C[C@@H]1C[C@H]1c1ccc2c(n1)N(c1ccc3cnc(CNC(=O)c4cc(F)c5c(c4)S(=O)(=O)[C@@H](F)COC5)cc3n1)CCO2 [Compound 41]
II: C[C@@H]1CN(c2cccc(-c3ccc4cnc(CNC(=O)c5cc(F)c6c(c5)S(=O)(=O)[C@H](F)CO[C@@H]6C)cc4n3)n2)C[C@H](C)O1 [Compound 222]
Input line: Could you kindly indicate whether I or II has the higher Ratio (BRG1 IC50 (μM) divided by BRM IC50 (μM)) value? Lab log: write the label of the selected item as the result.
Output line: I
(I: 20.00, II: 11.79)
